Please provide measured relative viability for the entries that follow.
test system: A-427; test: relative viability (nuclei count vs DMSO), 5 days (fraction); higher = more cells survive; conditions: first compound 0.01581 µM

Input: # query: relative viability | item Nc1ccn([C@@H]2O[C@H](CO)[C@@H](O)[C@@H]2O)c(=O)n1 [Cytarabine] + Cc1nc(NC(=O)N2CCC[C@H]2C(N)=O)sc1-c1ccnc(C(C)(C)C(F)(F)F)c1 [Alpelisib] (partner 2 µM) | system: A-427
Output: 0.518

Input: # query: relative viability | item COc1cc2nccc(Oc3ccc(NC(=O)Nc4cc(C)on4)c(Cl)c3)c2cc1OC [Tivozanib] + COc1cccc2cc(-c3nc([C@H]4CC[C@H](C(=O)O)CC4)n4ncnc(N)c34)[nH]c12 [OSI-027] (partner 0.5 µM) | system: A-427
Output: 0.492

Input: # query: relative viability | item Nc1ccn([C@@H]2O[C@H](CO)[C@@H](O)[C@@H]2O)c(=O)n1 [Cytarabine] + COc1cc2c(Oc3ccc(NC(=O)C4(C(=O)Nc5ccc(F)cc5)CC4)cc3F)ccnc2cc1OCCCN1CCOCC1 [Foretinib] (partner 0.25 µM) | system: A-427
Output: 0.399

Input: # query: relative viability | item Nc1ccn([C@@H]2O[C@H](CO)[C@@H](O)[C@@H]2O)c(=O)n1 [Cytarabine] + NC(=O)Nc1cc(-c2cccc(F)c2)sc1C(=O)N[C@H]1CCCNC1 [AZD7762] (partner 0.2 µM) | system: A-427
Output: 0.246

###

Please provide measured relative viability for the entries that follow.
test system: RERF-LC-KJ; assay: relative viability (nuclei count vs DMSO), 5 days (fraction); higher = more cells survive; conditions: first compound 4 µM
Reply briefly: the number, and no unit.

Input: Name the reported relative viability value associated with the compound Cc1sc2c(c1C)C(c1ccc(Cl)cc1)=N[C@@H](CC(=O)OC(C)(C)C)c1nnc(C)n1-2 [JQ1] + NC(=O)Nc1cc(-c2cccc(F)c2)sc1C(=O)N[C@H]1CCCNC1 [AZD7762] (partner 0.2 µM)
Output: 0.358

Input: Name the reported relative viability value associated with the compound Cc1sc2c(c1C)C(c1ccc(Cl)cc1)=N[C@@H](CC(=O)OC(C)(C)C)c1nnc(C)n1-2 [JQ1] + O=C(CCCCCCC(=O)Nc1ccccc1)NO [Vorinostat] (partner 1 µM)
Output: 0.223

Input: Name the reported relative viability value associated with the compound Cc1sc2c(c1C)C(c1ccc(Cl)cc1)=N[C@@H](CC(=O)OC(C)(C)C)c1nnc(C)n1-2 [JQ1] + Cc1nc(Nc2ncc(C(=O)Nc3c(C)cccc3Cl)s2)cc(N2CCN(CCO)CC2)n1 [Dasatinib] (partner 0.075 µM)
Output: 0.332

Input: Name the reported relative viability value associated with the compound Cc1sc2c(c1C)C(c1ccc(Cl)cc1)=N[C@@H](CC(=O)OC(C)(C)C)c1nnc(C)n1-2 [JQ1] + O=C(c1cc(Cc2n[nH]c(=O)c3ccccc23)ccc1F)N1CCN(C(=O)C2CC2)CC1 [Olaparib] (partner 8 µM)
Output: 0.338

Input: Name the reported relative viability value associated with the compound Cc1sc2c(c1C)C(c1ccc(Cl)cc1)=N[C@@H](CC(=O)OC(C)(C)C)c1nnc(C)n1-2 [JQ1] + COc1cccc2cc(-c3nc([C@H]4CC[C@H](C(=O)O)CC4)n4ncnc(N)c34)[nH]c12 [OSI-027] (partner 0.5 µM)
Output: 0.338

Input: Name the reported relative viability value associated with the compound Cc1sc2c(c1C)C(c1ccc(Cl)cc1)=N[C@@H](CC(=O)OC(C)(C)C)c1nnc(C)n1-2 [JQ1] + C[C@]1(O)C[C@@H](c2nc(-c3ccc4ccc(-c5ccccc5)nc4c3)c3c(N)nccn32)C1 [Linsitinib] (partner 1 µM)
Output: 0.631
